measured-target: Casein kinase II subunit alpha (Homo sapiens) (UniProt P68400)
Sequence (P68400 whole entry, looked up): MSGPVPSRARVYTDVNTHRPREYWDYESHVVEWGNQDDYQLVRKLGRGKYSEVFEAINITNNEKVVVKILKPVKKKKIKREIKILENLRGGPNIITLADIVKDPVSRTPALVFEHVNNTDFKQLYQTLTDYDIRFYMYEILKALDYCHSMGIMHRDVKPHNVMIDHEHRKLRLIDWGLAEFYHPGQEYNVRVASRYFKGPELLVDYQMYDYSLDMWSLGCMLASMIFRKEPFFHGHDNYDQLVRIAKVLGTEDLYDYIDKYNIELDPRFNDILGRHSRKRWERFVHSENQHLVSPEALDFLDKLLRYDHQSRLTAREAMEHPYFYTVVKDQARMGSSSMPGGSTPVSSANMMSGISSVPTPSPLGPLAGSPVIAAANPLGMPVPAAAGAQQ
condition: at 0.1 µM
Description: GSK_PKIS: CK2 mean inhibition at 0.1 uM [Nanosyn]
Form field: inhibition (one value per entry).

{"smiles": "COc1ccc2ncn(-c3cc(O[C@H](C)c4ccccc4C(F)(F)F)c(C(N)=O)s3)c2c1", "inhibition, %": -0.88}
{"smiles": "O=C(O[C@H]1CN[C@H](C#Cc2cc3ncnc(Nc4ccc5c(cnn5Cc5ccccc5)c4)c3s2)C1)N1CCOCC1", "inhibition, %": -2.6}
{"smiles": "CS(=O)(=O)CCNCc1ccc(-c2ccc3ncnc(Nc4ccc(OCc5cccc(C(F)(F)F)c5)cc4)c3c2)o1", "inhibition, %": 5.1}
{"smiles": "COc1ccccc1-c1cc(/C=C2\\C(=O)Nc3ncc(Br)cc32)cc(Br)c1O", "inhibition, %": 1.59}
{"smiles": "CS(=O)(=O)Nc1ccc(-c2cc(-c3ccccc3)cc(C(N)=O)c2N)cc1", "inhibition, %": 0.89}
{"smiles": "c1ccc(-c2n[nH]cc2-c2ccnc(-c3ccc(OCCn4ccnc4)cc3)c2)nc1", "inhibition, %": 1.26}
{"smiles": "COc1cccc(-n2ncc3c(N/N=C/c4ccc(C(=O)NCCN(C)C)cc4)ncnc32)c1", "inhibition, %": 31}
{"smiles": "CS(=O)(=O)CCNCc1ccc(-c2ccc3ncnc(Nc4ccc(OCc5ccccc5)cc4)c3c2)o1", "inhibition, %": 9.29}
{"smiles": "O=C1Nc2ccccc2/C1=C1\\CCc2cc(O)ccc21", "inhibition, %": 3.18}
